Reference source: patent US12227509B2

target-or-test-system: recombinant human MGAT2 (Homo sapiens (Human), UniProt Q3SYC2)
Sequence (Q3SYC2 whole entry): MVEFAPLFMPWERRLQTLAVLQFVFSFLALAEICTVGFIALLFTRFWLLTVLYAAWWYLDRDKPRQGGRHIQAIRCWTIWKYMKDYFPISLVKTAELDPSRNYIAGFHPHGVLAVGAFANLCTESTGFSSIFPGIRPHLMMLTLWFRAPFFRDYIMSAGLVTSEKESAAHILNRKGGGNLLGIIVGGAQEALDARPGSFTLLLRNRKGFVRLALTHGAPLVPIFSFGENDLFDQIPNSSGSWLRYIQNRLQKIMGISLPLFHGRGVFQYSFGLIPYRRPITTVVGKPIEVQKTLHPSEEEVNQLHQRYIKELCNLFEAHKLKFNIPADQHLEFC
test-details: Measurement of human MGAT2 inhibitory activity
Type: biochemical
study-conditions: concentration exhibiting 50% enzyme inhibition; recombinant human MGAT2, 2-Oleoylglycerol/Oleoyl-CoA
pIC50: −log10 of the molar value.
experimental-endpoint: pIC50

Solved cases (2 shown):
CCCCCc1nn2c(c1NC(=O)CS(C)(=O)=O)C(=O)N[C@]1(CCc3cc(OCC)ccc31)C2 [Compound I-115]	7.84
CS(=O)(=O)CC(=O)Nc1c(-c2ccc(C(F)F)cc2)nn2c1C(=O)N[C@@]1(CCc3cc(OCC(F)(F)F)ccc31)C2 [Compound I-24]	8.86

[a] CC(C)c1ccc(-c2nn3c(c2NC(=O)CS(C)(=O)=O)C(=O)N[C@]2(CCc4cc(OCC(F)(F)F)ccc42)C3)cc1 [Compound I-97]
[b] CS(=O)(=O)CC(=O)Nc1c(-c2ccc(F)cn2)nn2c1C(=O)N[C@@]1(CCc3cc(F)cc(F)c31)C2 [Compound I-121]
## Task I'm curious, which of these has a smaller pIC50 number: a or b ? Selection: enter the item's label.
## Result b

* * *

target-or-test-system: recombinant human MGAT2 (Homo sapiens (Human), UniProt Q3SYC2)
test-details: Measurement of human MGAT2 inhibitory activity
Format: biochemical
study-conditions: concentration exhibiting 50% enzyme inhibition; recombinant human MGAT2, 2-Oleoylglycerol/Oleoyl-CoA
pIC50: −log10 of the molar value.
experimental-endpoint: pIC50

Worked cases, answers included:
CS(=O)(=O)CC(=O)Nc1c(-c2ccc(OC(F)F)cc2)nn2c1C(=O)N[C@@]1(CCc3cc(OCC(F)(F)F)ccc31)C2	8.41
CS(=O)(=O)CC(=O)Nc1c(-c2ccc(F)cc2)nn2c1C(=O)N[C@]1(CCOc3cc(OCC(F)(F)F)ccc31)C2	8.59
Cc1ccc(-c2nn3c(c2NC(=O)CS(C)(=O)=O)C(=O)N[C@]2(CCc4cc(OCCCC(F)(F)F)ccc42)C3)nc1	8.83

[A] CS(=N)(=O)CC(=O)Nc1c(-c2ccc(Cl)c(F)c2)nn2c1C(=O)N[C@@]1(CCc3cc(OCC(F)(F)F)ccc31)C2 (stereo partly shown)
[B] Cc1ccc(-c2nn3c(c2NC(=O)CC(F)(F)F)C(=O)N[C@@]2(CCc4cc(OCC(F)(F)F)ccc42)C3)nc1
[C] Cc1ccc(-c2nn3c(c2NC(=O)CS(C)(=O)=O)C(=O)N[C@@]2(CCc4cc(OCC(F)(F)F)ccc42)C3)cc1F
[D] CCOc1ccc2c(c1)CC[C@]21Cn2nc(-c3ccc(F)cc3)c(NC(=O)CS(C)(=O)=O)c2C(=O)N1
## Task Hello, I need these entries ordered by pIC50, highest reading first. Thanks! Provide the ranking by listing each label in its place in the requested order.
## Result C, A, D, B
(C: 8.87, A: 8.55, D: 8.17, B: 6.43)

* * *

target-or-test-system: recombinant human MGAT2 (Homo sapiens (Human))
test-details: Measurement of human MGAT2 inhibitory activity
Format: biochemical
study-conditions: concentration exhibiting 50% enzyme inhibition; recombinant human MGAT2, 2-Oleoylglycerol/Oleoyl-CoA
pIC50: −log10 of the molar value.
experimental-endpoint: pIC50

CCCCCc1nn2c(c1NC(=O)CS(C)(=O)=O)C(=O)N[C@]1(CCOc3cc(OCC(F)(F)F)ccc31)C2	8.51
CS(=O)(=O)CC(=O)Nc1c(-c2cc(F)cc(F)c2)nn2c1C(=O)N[C@@]1(CCc3cc(OCC(F)(F)F)ccc31)C2	8.60
CS(=O)(=O)CC(=O)Nc1c(CCC2CC2)nn2c1C(=O)N[C@]1(CCOc3cc(OCC(F)(F)F)ccc31)C2	8.67
